Where these numbers come from: patent US8580811B2

- assay_target: human AR (Homo sapiens)
- Construct: expressed in transfected cells; host or cells: COS-1 cells
- assay_summary: IR Binding Assay: whole cell competitive binding of test compounds against 3H-DHT in COS-1 cells transfected with pRShAR
Could you please report measured Ki for the items listed next?

Some molecules with recorded Ki:
CC1c2c(ccc3[nH]c(=O)cc(C(F)(F)F)c23)N(CCCC(F)(F)F)C1C (racemic)	< 5 nM
CC(=O)OCCn1c(C)c(C)c2c3c(C(F)(F)F)cc(=O)[nH]c3ccc21	5 to 10 nM
CCn1c(C)c(C)c2c3c(Cl)cc(=O)[nH]c3ccc21	< 5 nM
Cc1c(C)n(CC(F)(F)C(F)(F)C(F)(F)F)c2ccc3[nH]c(=O)cc(Cl)c3c12	> 10 nM
Cc1c(-c2cccnc2)n(CC(F)(F)C(F)(F)F)c2ccc3[nH]c(=O)cc(Cl)c3c12	< 5 nM

Hi! Can you tell me Ki for each of these molecules?
1. Cc1c(-c2cccc(F)c2)n(CC(F)(F)F)c2ccc3[nH]c(=O)cc(Cl)c3c12
2. Cc1c(-c2ccccn2)n(C[C@H](O)C(F)(F)F)c2ccc3[nH]c(=O)cc(Cl)c3c12
3. Cc1c(CO)n(CC(F)(F)F)c2ccc3[nH]c(=O)cc(Cl)c3c12

// result
1. < 5 nM
2. 5 to 10 nM
3. > 10 nM

---

Please respond with reported Ki for every item in the list.
- assay_target: human AR (Homo sapiens)
- Construct: expressed in transfected cells; host or cells: COS-1 cells
- Sequence (P10275 1-920): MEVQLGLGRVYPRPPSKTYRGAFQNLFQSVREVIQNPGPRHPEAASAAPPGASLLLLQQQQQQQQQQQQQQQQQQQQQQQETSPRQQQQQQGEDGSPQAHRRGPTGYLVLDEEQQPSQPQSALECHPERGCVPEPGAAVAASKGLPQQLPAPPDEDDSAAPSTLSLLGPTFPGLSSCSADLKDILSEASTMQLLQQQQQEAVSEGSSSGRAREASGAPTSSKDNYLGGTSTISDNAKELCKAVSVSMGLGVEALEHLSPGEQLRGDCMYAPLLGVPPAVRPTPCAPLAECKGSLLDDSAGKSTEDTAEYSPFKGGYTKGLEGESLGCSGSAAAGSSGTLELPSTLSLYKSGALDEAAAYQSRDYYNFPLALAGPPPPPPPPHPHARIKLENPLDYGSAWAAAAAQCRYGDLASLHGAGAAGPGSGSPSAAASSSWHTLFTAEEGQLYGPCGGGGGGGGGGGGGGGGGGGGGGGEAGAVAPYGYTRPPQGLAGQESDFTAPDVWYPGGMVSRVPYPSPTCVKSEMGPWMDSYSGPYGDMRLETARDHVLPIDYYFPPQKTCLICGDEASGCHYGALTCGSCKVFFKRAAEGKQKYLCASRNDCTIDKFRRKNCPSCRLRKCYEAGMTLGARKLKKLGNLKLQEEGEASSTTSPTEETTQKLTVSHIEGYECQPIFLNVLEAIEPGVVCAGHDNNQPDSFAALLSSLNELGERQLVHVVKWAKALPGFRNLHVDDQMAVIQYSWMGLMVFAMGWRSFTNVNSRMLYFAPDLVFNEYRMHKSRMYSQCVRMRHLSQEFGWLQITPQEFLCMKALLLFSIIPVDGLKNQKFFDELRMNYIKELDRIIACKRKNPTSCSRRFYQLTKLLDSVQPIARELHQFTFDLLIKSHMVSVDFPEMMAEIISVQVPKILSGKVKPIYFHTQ
- assay_summary: IR Binding Assay: whole cell competitive binding of test compounds against 3H-DHT in COS-1 cells transfected with pRShAR

Recorded Ki, per entry:
Cc1c(C)n(CC(O)CO)c2ccc3[nH]c(=O)cc(C(F)(F)F)c3c12 (centres unmarked) [Compound 293]	> 10 nM
Cc1c(-c2ncco2)n(CC(F)(F)C(F)(F)F)c2ccc3[nH]c(=O)cc(Cl)c3c12 [Compound 266]	< 5 nM
Cc1c(-c2ccccc2)n(C[C@H](O)C(F)(F)F)c2ccc3[nH]c(=O)cc(Cl)c3c12 [Compound 271]	< 5 nM
C=CCn1c(C)c(C)c2c3c(C(F)(F)F)cc(=O)[nH]c3ccc21 [Compound 236]	< 5 nM
CCc1c(C)c2c3c(C(F)(F)F)cc(=O)[nH]c3ccc2n1CCCO [Compound 286]	< 5 nM

Quick request: Ki for each listed item, please.
1. O=c1cc(C(F)(F)F)c2c(ccc3c2c2c(n3CC(O)C(F)(F)F)CCC2)[nH]1 (racemic) [Compound 246]
2. Cc1c(-c2ccccc2)n(C[C@@H](O)C(F)(F)F)c2ccc3[nH]c(=O)cc(Cl)c3c12 [Compound 280]
3. CC1c2c(ccc3[nH]c(=O)cc(Cl)c23)N(CCc2cccs2)C1C (racemic) [Compound 142]

// result
1: 5 to 10 nM; 2: > 10 nM; 3: < 5 nM

---

- assay_target: human AR (Homo sapiens, UniProt P10275)
- Construct: expressed in transfected cells; host or cells: COS-1 cells
- assay_summary: IR Binding Assay: whole cell competitive binding of test compounds against 3H-DHT in COS-1 cells transfected with pRShAR
pKi: −log10 of the molar value.
observation_type: pKi

Cc1c(C)n(CC(F)(F)F)c2ccc3[nH]c(=O)cc(Cl)c3c12	> 8.30

Batch of 3 compounds: report pKi for each.
1. CC1c2c(ccc3[nH]c(=O)cc(Cl)c23)N(CC(F)(F)F)C1c1ccc(Cl)c(Cl)c1 (racemic)
2. CCc1c(C)c2c3c(C(F)(F)F)cc(=O)[nH]c3ccc2n1CCCC(F)(F)F
3. Cc1c(-c2nccs2)n(CC(F)(F)F)c2ccc3[nH]c(=O)cc(Cl)c3c12

// result
1: > 8.30; 2: > 8.30; 3: > 8.30

// query Entry "Cc1c(-c2ccc(F)cc2F)n(CC(F)(F)F)c2ccc3[nH]c(=O)cc(Cl)c3c12" has what pKi?
// result > 8.30

---

Can you tell me Ki for the items I'm about to list?
- assay_target: human AR (Homo sapiens)
- Construct: expressed in transfected cells; host or cells: COS-1 cells
- assay_summary: IR Binding Assay: whole cell competitive binding of test compounds against 3H-DHT in COS-1 cells transfected with pRShAR

Would you please look over these solved cases?
CC1c2c(ccc3[nH]c(=O)cc(Cl)c23)N(CC(F)(F)F)C1c1cccc([N+](=O)[O-])c1 (racemic)	> 10 nM
Cc1c(C)n(C[C@@H](O)CO)c2ccc3[nH]c(=O)cc(C(F)(F)F)c3c12	> 10 nM
CC1CN(CC(F)(F)F)c2ccc3[nH]c(=O)cc(Cl)c3c21 (racemic)	< 5 nM
Cc1[nH]c2ccc3[nH]c(=O)cc(Cl)c3c2c1CC(=O)O	< 5 nM

Give Ki for each listed item.
1. CC1c2c(cc(F)c3[nH]c(=O)cc(Cl)c23)N(CC(F)(F)F)C1C (racemic)
2. Cc1c(C)n(C[C@@H](O)C(F)(F)F)c2ccc3[nH]c(=O)cc(Cl)c3c12
3. CC1c2c(ccc3[nH]c(=O)cc(Cl)c23)N(CC(C)(C)C)C1C (racemic)

// result
["< 5 nM", "< 5 nM", "5 to 10 nM"]

// query Hi! What's the reported Ki for CC1Nc2ccc3[nH]c(=O)cc(Cl)c3c2C1C (racemic) on human AR (Homo sapiens)?
// result > 10 nM

---

I'd appreciate it if you could supply Ki values for the items below.
- assay_target: human AR (Homo sapiens, UniProt P10275)
- Construct: expressed in transfected cells; host or cells: COS-1 cells
- Sequence (P10275 1-920): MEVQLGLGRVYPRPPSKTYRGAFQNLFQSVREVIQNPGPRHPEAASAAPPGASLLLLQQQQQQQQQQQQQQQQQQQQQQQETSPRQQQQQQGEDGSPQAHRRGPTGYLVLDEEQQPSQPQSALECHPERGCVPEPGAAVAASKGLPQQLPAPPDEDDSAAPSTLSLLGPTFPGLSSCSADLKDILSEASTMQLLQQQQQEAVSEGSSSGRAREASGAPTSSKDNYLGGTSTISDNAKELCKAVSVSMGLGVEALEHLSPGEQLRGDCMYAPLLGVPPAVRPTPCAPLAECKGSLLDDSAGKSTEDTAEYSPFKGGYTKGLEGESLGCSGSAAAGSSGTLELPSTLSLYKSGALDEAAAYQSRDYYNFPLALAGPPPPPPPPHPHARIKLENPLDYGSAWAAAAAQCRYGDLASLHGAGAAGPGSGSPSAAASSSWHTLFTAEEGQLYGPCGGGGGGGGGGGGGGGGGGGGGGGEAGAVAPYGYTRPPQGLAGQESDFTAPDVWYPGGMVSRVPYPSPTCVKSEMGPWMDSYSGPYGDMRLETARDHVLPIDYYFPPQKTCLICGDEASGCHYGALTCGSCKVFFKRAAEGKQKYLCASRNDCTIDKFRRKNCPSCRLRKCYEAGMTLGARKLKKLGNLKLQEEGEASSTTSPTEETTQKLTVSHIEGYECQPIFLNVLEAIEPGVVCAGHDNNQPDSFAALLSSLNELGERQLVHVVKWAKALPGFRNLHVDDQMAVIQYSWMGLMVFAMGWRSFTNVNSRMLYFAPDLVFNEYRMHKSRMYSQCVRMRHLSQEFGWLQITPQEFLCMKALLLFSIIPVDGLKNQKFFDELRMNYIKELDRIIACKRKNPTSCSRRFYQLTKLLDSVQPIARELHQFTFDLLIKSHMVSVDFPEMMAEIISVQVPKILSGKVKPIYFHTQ
- assay_summary: IR Binding Assay: whole cell competitive binding of test compounds against 3H-DHT in COS-1 cells transfected with pRShAR

CCc1c(C)n(CC(F)(F)F)c2ccc3[nH]c(=O)cc(Cl)c3c12 [Compound 185]	< 5 nM
Cc1c(C(F)(F)F)n(CC(F)(F)F)c2ccc3[nH]c(=O)cc(C(F)(F)F)c3c12 [Compound 234]	< 5 nM
Cc1c(C)n(CCCBr)c2ccc3[nH]c(=O)cc(C(F)(F)F)c3c12 [Compound 288]	< 5 nM
Cc1c(-c2ccc(Cl)cc2)[nH]c2ccc3[nH]c(=O)cc(Cl)c3c12 [Compound 118]	< 5 nM
Cc1c(-c2cccc(C(F)(F)F)c2)n(CC(F)(F)F)c2ccc3[nH]c(=O)cc(Cl)c3c12 [Compound 201]	> 10 nM
CCc1c(-c2cccs2)[nH]c2ccc3[nH]c(=O)cc(Cl)c3c12 [Compound 123]	5 to 10 nM
CC1c2c(ccc3[nH]c(=O)cc(Cl)c23)N(CCC(F)(F)F)C1C (racemic) [Compound 145]	< 5 nM
Cc1c(C)n(CCOCCOCCO)c2ccc3[nH]c(=O)cc(C(F)(F)F)c3c12 [Compound 298]	> 10 nM

Here are 7 molecules. What values of Ki were reported for them?
1. Cc1c(C)n(CC(O)C(F)(F)F)c2ccc3[nH]c(=O)cc(C(F)(F)F)c3c12 (racemic) [Compound 243]
2. CCC1c2c(ccc3[nH]c(=O)cc(Cl)c23)N(CC(F)(F)F)C1c1ccccc1 (racemic) [Compound 160]
3. CC(C)=Cn1c(C)c(C)c2c3c(C(F)(F)F)cc(=O)[nH]c3ccc21 [Compound 238]
4. CC1c2c(ccc3[nH]c(=O)cc(Cl)c23)N(CCO)C1C (racemic) [Compound 139]
5. CC(=O)OCCCn1c(C)c(C)c2c3c(C(F)(F)F)cc(=O)[nH]c3ccc21 [Compound 250]
6. Cc1c(-c2ccccc2)n(CC(F)(F)F)c2ccc3[nH]c(=O)cc(Cl)c3c12 [Compound 187]
7. O=c1cc(Cl)c2c3c(ccc2[nH]1)N(CC(F)(F)F)[C@@H]1CCC[C@H]31 [Compound 162]

// result
1: < 5 nM; 2: > 10 nM; 3: < 5 nM; 4: > 10 nM; 5: < 5 nM; 6: < 5 nM; 7: < 5 nM

# map each molecule to its Ki
1. Cc1c(C)n(CC(F)(F)F)c2cc(F)c3[nH]c(=O)cc(Cl)c3c12 [Compound 195]
2. Cc1ccc(-c2c(C)c3c4c(Cl)cc(=O)[nH]c4ccc3n2CC(F)(F)C(F)(F)F)s1 [Compound 268]

// result
["< 5 nM", "< 5 nM"]
